Origin of values: paper PMC5773651

- Test system: HepG2 cells transduced with AdCYP2D6
- test_summary: HCS hepatotoxicity assay (MEC, TR), AdCYP2D6-HepG2
- Assay type: cell-based, human
- assay_conditions: AdCYP 2D6 10x; 24 h; unit inferred, tested range in µM
attribute_measured: MEC Apoptosis
Just so you know, I need the unit written after the number.

Form: compound = C1CCC(C(CC2CCCCN2)C2CCCCC2)CC1 (stereo not shown) ; MEC Apoptosis = 25 µM

* * *

- System: HepG2 cells transduced with AdCYP2C9
- test_summary: HCS hepatotoxicity assay (MEC, TR), AdCYP2C9-HepG2
- Assay type: cell-based, human
- assay_conditions: AdCYP 2C9 1x; 24 h; unit inferred, tested range in µM
attribute_measured: MEC MMP

# O=C(O)COc1ccc(C(=O)c2cccs2)c(Cl)c1Cl with HepG2 cells transduced with AdCYP2C9: MEC MMP is > 1200 µM

* * *

- System: HepG2 cells transduced with AdCYP2D6
- test_summary: HCS hepatotoxicity assay (MEC, TR), AdCYP2D6-HepG2
- Assay type: cell-based, human
- assay_conditions: AdCYP 2D6 1x; 24 h; unit inferred, tested range in µM
attribute_measured: MEC Lipids

Form: compound = C1CCC(C(CC2CCCCN2)C2CCCCC2)CC1 (stereo not shown) ; MEC Lipids = > 27.5 µM

* * *

- Tested on: HepG2 cells transduced with AdCYP2E1
- test_summary: Cell viability (PI), IC50, AdCYP2E1-HepG2
- Assay type: cell-based
- assay_conditions: Homo sapiens, ADV CYP2E1 x4, 24 h, unit inferred, tested range in µM, read-out: IC50 (cell viability), ADV dose x4
attribute_measured: IC50 (µM)
Report the figure in µM without appending any unit label.

Form: compound = NNC(=O)c1ccncc1 ; IC50 = 44500

* * *

- System: HepG2 cells transduced with AdCYP2C19
- test_summary: HCS hepatotoxicity assay (MEC, TR), AdCYP2C19-HepG2
- Assay type: cell-based, human
- assay_conditions: AdCYP 2C19 10x; 24 h; unit inferred, tested range in µM
- Method: For subculturing purposes, cells were detached by treatment with 0.25% trypsin/0.02% EDTA at 37 °C. For the adenovirus infection studies, cells were seeded in 96-well plates (5000 cells/well) and adenovirus-containing medium was added 48 h later. […] The drugs included in the study were chosen based on previous information about their hepatotoxicity. […] Each experimental condition was repeated independently three times (with three wells measured each time). […]
attribute_measured: MEC MMP (µM)
Report the figure in µM without appending any unit label.

Form: compound = CC(C)C(=O)Nc1ccc([N+](=O)[O-])c(C(F)(F)F)c1 [Flutamide] ; MEC MMP = 250

* * *

- Test system: HepG2 cells transduced with AdCYP2D6
- test_summary: HCS hepatotoxicity assay (MEC, TR), AdCYP2D6-HepG2
- Format: cell-based, human
- assay_conditions: AdCYP 2D6 1x; 24 h; unit inferred, tested range in µM
attribute_measured: MEC MMP (µM)
Report the figure in µM without appending any unit label.

Form: compound = C1CCC(C(CC2CCCCN2)C2CCCCC2)CC1 (stereo not shown) ; MEC MMP = 22.5

* * *

- Tested on: HepG2 cells transduced with AdCYP2D6
- test_summary: HCS hepatotoxicity assay (MEC, TR), AdCYP2D6-HepG2
- Format: cell-based, human
- assay_conditions: AdCYP 2D6 1x; 24 h; unit inferred, tested range in µM
attribute_measured: MEC Calcium (µM)
Report the figure in µM without appending any unit label.

Form: molecule = C1CCC(C(CC2CCCCN2)C2CCCCC2)CC1 (stereo not shown) ; MEC Calcium = 12.5

* * *

- System: HepG2 cells transduced with AdCYP2D6
- test_summary: HCS hepatotoxicity assay (MEC, TR), AdCYP2D6-HepG2
- Assay type: cell-based, human
- assay_conditions: AdCYP 2D6 1x; 24 h; unit inferred, tested range in µM
attribute_measured: MEC ROS

Form: compound = C1CCC(C(CC2CCCCN2)C2CCCCC2)CC1 (stereo not shown) [Perhexiline] ; MEC ROS = > 27.5 µM

* * *

- Tested on: HepG2 cells transduced with AdCYP2C9
- test_summary: HCS hepatotoxicity assay (MEC, TR), AdCYP2C9-HepG2
- Type: cell-based, human
- assay_conditions: AdCYP 2C9 10x; 24 h; unit inferred, tested range in µM
attribute_measured: MEC Calcium (µM)
Report the figure in µM without appending any unit label.

# O=C(O)COc1ccc(C(=O)c2cccs2)c(Cl)c1Cl with HepG2 cells transduced with AdCYP2C9: MEC Calcium is 200

* * *

- Test system: HepG2 cells transduced with AdCYP2C19
- test_summary: HCS hepatotoxicity assay (MEC, TR), AdCYP2C19-HepG2
- Assay type: cell-based, human
- assay_conditions: AdCYP 2C19 4x; 24 h; unit inferred, tested range in µM
- Description: For subculturing purposes, cells were detached by treatment with 0.25% trypsin/0.02% EDTA at 37 °C. For the adenovirus infection studies, cells were seeded in 96-well plates (5000 cells/well) and adenovirus-containing medium was added 48 h later. […] The drugs included in the study were chosen based on previous information about their hepatotoxicity. […] Each experimental condition was repeated independently three times (with three wells measured each time). […]
attribute_measured: MEC Apoptosis (µM)
Report the figure in µM without appending any unit label.

Form: compound = CC(C)C(=O)Nc1ccc([N+](=O)[O-])c(C(F)(F)F)c1 [Flutamide] ; MEC Apoptosis = 250

* * *

- Test system: HepG2 cells transduced with AdCYP2D6
- test_summary: Cell viability (PI), IC50, AdCYP2D6-HepG2
- Assay type: cell-based
- assay_conditions: Homo sapiens, ADV CYP2D6 x10, 24 h, unit inferred, tested range in µM, read-out: IC50 (cell viability), ADV dose x10
attribute_measured: IC50 (µM)
Report the figure in µM without appending any unit label.

Form: compound = C1CCC(C(CC2CCCCN2)C2CCCCC2)CC1 (stereo not shown) ; IC50 = 27.4

* * *

- Tested on: HepG2 cells transduced with AdCYP2C9
- test_summary: HCS hepatotoxicity assay (MEC, TR), AdCYP2C9-HepG2
- Assay type: cell-based, human
- assay_conditions: AdCYP 2C9 4x; 24 h; unit inferred, tested range in µM
attribute_measured: MEC MMP

Form: compound = O=C(O)COc1ccc(C(=O)c2cccs2)c(Cl)c1Cl [Tienilic acid] ; MEC MMP = > 1200 µM

* * *

- System: HepG2 cells co-transduced with AdCYP2E1, CYP1A2 and AdGSTM1
- test_summary: HCS hepatotoxicity assay (MEC, TR), AdCYP2E1 + AdCYP1A2 + AdGSTM1 HepG2
- Type: cell-based, human
- assay_conditions: CYP2E1-4X + CYP1A2-4X + GSTM1; 24 h; unit inferred, tested range in mM
attribute_measured: MEC Calcium (mM)
Report the figure in mM without appending any unit label.

Form: compound = CC(=O)Nc1ccc(O)cc1 ; MEC Calcium = 6

* * *

- System: HepG2 cells transduced with AdCYP2C19
- test_summary: HCS hepatotoxicity assay (MEC, TR), AdCYP2C19-HepG2
- Type: cell-based, human
- assay_conditions: AdCYP 2C19 1x; 24 h; unit inferred, tested range in µM
attribute_measured: MEC Calcium
Just so you know, I need the unit written after the number.

# CC(C)C(=O)Nc1ccc([N+](=O)[O-])c(C(F)(F)F)c1 [Flutamide] with HepG2 cells transduced with AdCYP2C19: MEC Calcium is 250 µM

* * *

- Tested on: HepG2 cells transduced with AdCYP2C19
- test_summary: HCS hepatotoxicity assay (MEC, TR), AdCYP2C19-HepG2
- Assay type: cell-based, human
- assay_conditions: AdCYP 2C19 10x; 24 h; unit inferred, tested range in µM
attribute_measured: MEC Apoptosis (µM)
Report the figure in µM without appending any unit label.

Form: compound = CC(C)C(=O)Nc1ccc([N+](=O)[O-])c(C(F)(F)F)c1 [Flutamide] ; MEC Apoptosis = 100

* * *

- System: HepG2 cells transduced with AdCYP2C9
- test_summary: HCS hepatotoxicity assay (MEC, TR), AdCYP2C9-HepG2
- Type: cell-based, human
- assay_conditions: AdCYP 2C9 4x; 24 h; unit inferred, tested range in µM
attribute_measured: MEC Calcium (µM)
Report the figure in µM without appending any unit label.

Form: compound = O=C(O)COc1ccc(C(=O)c2cccs2)c(Cl)c1Cl ; MEC Calcium = 400

* * *

- Tested on: HepG2 cells transduced with AdCYP2C9
- test_summary: HCS hepatotoxicity assay (MEC, TR), AdCYP2C9-HepG2
- Assay type: cell-based, human
- assay_conditions: AdCYP 2C9 10x; 24 h; unit inferred, tested range in µM
attribute_measured: MEC ROS (µM)
Report the figure in µM without appending any unit label.

# O=C(O)COc1ccc(C(=O)c2cccs2)c(Cl)c1Cl [Tienilic acid] with HepG2 cells transduced with AdCYP2C9: MEC ROS is 400
